Provide the recorded growth for the entries that follow.
# System: Klebsiella aerogenes DSM 30053
# Test Method Notes: growth (OD595) fold change vs plate DMSO controls (fold change (ratio)); higher = more growth
# Assay Setup: incubation time: 27 h, anaerobic, 37 °C
Where a name gives a salt, the structure may show the parent alone.
# respond with the number and nothing more

Task: Checklist item: growth tested on Klebsiella aerogenes DSM 30053, entry C=CCOc1ccccc1OCC(O)CNC(C)C (stereo not given) [Oxprenolol hydrochloride] (20 µM) , value?
Result: 0.986

Task: Same for CCCCOC(=O)c1ccc(O)cc1 [Butylparaben] (20 µM)
Result: 0.965

Task: Cool, now O=C(Nc1cccc2c(=O)cc(-c3nnn[nH]3)oc12)c1ccc(OCCCCc2ccccc2)cc1 [Pranlukast] (20 µM)
Result: 0.999

Task: Another compound: c1ccc([C@H]2CN3CCSC3=N2)cc1 [Levamisole hydrochloride] (20 µM)
Result: 0.966

Task: Please answer likewise for CCOc1nc2cccc(C(=O)O)c2n1Cc1ccc(-c2ccccc2-c2nnn[nH]2)cc1 [Candesartan] (20 µM)
Result: 1.01

====

# Tested on: Klebsiella aerogenes DSM 30053
# Test Method Notes: fold change of Histamine concentration vs plate DMSO controls (fold change (ratio)); higher = more amine produced, active = hit call of the paper (significant change in both replicates, either direction)
# Assay Setup: incubation time: 27 h, anaerobic, 37 °C
Counter-ions that a name gives are not always drawn.
Would you kindly list fold change of Histamine concentration for each of these compounds?

Task: Return reported fold change of Histamine concentration; argument: Cc1ccccc1N1C(=O)c2cc(S(N)(=O)=O)c(Cl)cc2NC1C (configuration not stated) [Metolazone] (20 µM)
Result: 1.04 (inactive)

Task: Try this compound too: CCOC(=O)c1c(N)sc2c1CCN(Cc1ccccc1)C2 [Tinoridine hydrochloride] (20 µM)
Result: 1.03 (inactive)

Task: Try CCN(Cc1ccncc1)C(=O)C(CO)c1ccccc1 (configuration not stated) [Tropicamide] (20 µM) next.
Result: 0.947 (inactive)

Task: Next up: CNCc1cc(-c2ccccc2F)n(S(=O)(=O)c2cccnc2)c1 [Vonoprazan] (20 µM)
Result: 1.04 (inactive)

Task: Now consider CCCC(CCC)C(=O)O [Valproic acid] (20 µM) .
Result: 0.977 (inactive)

Task: Proceed to CC(C)[C@H]1CC[C@H](C(=O)N[C@H](Cc2ccccc2)C(=O)O)CC1 [Nateglinide] (20 µM)
Result: 1.01 (inactive)

Task: Entry CCOC(=O)[C@H](CCc1ccccc1)N[C@@H](C)C(=O)N(CC(=O)O)C1Cc2ccccc2C1 [Delapril Hydrochloride] (20 µM) please
Result: 1.04 (inactive)

Task: For CC(C)CN(C[C@@H](O)[C@H](Cc1ccccc1)NC(=O)O[C@H]1CCOC1)S(=O)(=O)c1ccc(N)cc1 [Amprenavir] (20 µM) then?
Result: 0.92 (inactive)

Task: Query CNS(=O)(=O)Cc1ccc2[nH]cc(CCN(C)C)c2c1 [Sumatriptan succinate] (20 µM) next
Result: 0.809 (inactive)

Task: Proceed to CC=C(C)C(=O)OC1C(OC(C)=O)C2(CO)C(O)CC3(C)C(=CCC4C5(C)CCC(OC6OC(C(=O)O)C(OC7OC(CO)C(O)C(O)C7O)C(O)C6OC6OC(CO)C(O)C(O)C6O)C(C)(CO)C5CCC43C)C2CC1(C)C (stereo not drawn) [Beta-Escin] (20 µM)
Result: 1.01 (inactive)

Task: Same thing, different compound: CN1CCN(CCCN2c3ccccc3Sc3ccc(Cl)cc32)CC1 [Prochlorperazine dimaleate] (20 µM)
Result: 0.917 (inactive)

Task: Repeat for the following compound: C=C1C[C@@]23CC[C@H]4[C@@](C)(CCC[C@@]4(C)C(=O)O[C@@H]4O[C@H](CO)[C@@H](O)[C@H](O)[C@H]4O)[C@@H]2CC[C@]1(O[C@@H]1O[C@H](CO)[C@@H](O)[C@H](O)[C@H]1O[C@@H]1O[C@H](CO)[C@@H](O)[C@H](O)[C@H]1O)C3 [Stevioside] (50 µM)
Result: 0.984 (inactive)

Task: // same read-out, input: O=c1[nH]c(=O)n(C2CCCO2)cc1F (configuration not stated) [Tegafur] (20 µM)
Result: 0.969 (inactive)

Task: Next entry: C[C@H](CCc1ccccc1)NC[C@H](O)c1ccc(O)c(C(N)=O)c1 [Dilevalol] (20 µM)
Result: 0.929 (inactive)

Task: What about NS(=O)(=O)c1cc2c(cc1Cl)NC(C(Cl)Cl)NS2(=O)=O (configuration not stated) [Trichlormethiazide] (20 µM) ?
Result: 1.05 (inactive)

Task: Same again, this time with C[C@H](CS)C(=O)N1CCC[C@H]1C(=O)O [Captopril] (20 µM)
Result: 1.01 (inactive)

Task: Then this compound: CCCCOC(=O)c1ccccc1Nc1cccc(C(F)(F)F)c1 [Ufenamate] (20 µM)
Result: 0.944 (inactive)

Task: Input C=C1[C@H](CO)[C@@H](O)C[C@@H]1n1cnc2c(=O)[nH]c(N)nc21 [Entecavir] (20 µM)
Result: 0.969 (inactive)

Task: Ok, now NCCc1cc[nH]n1 [Betazole hydrochloride] (20 µM)
Result: 0.96 (inactive)

Task: Moving on to the next compound: COC(=O)C1=C(C#N)NC(C)=C(C(=O)OC(C)C)C1c1cccc([N+](=O)[O-])c1 (configuration not stated) [Nilvadipine] (20 µM)
Result: 0.971 (inactive)

Task: Then what about the compound CN(C)CCC=C1c2ccccc2CCc2ccccc21 [Amitryptiline hydrochloride] (20 µM) ?
Result: 0.911 (inactive)

Task: What do you get for NC[C@H]1O[C@H](O[C@H]2[C@H](O[C@@H]3O[C@H](CO)[C@@H](O)[C@H]3O)[C@@H](O)[C@H](N)C[C@@H]2N)[C@H](N)[C@@H](O)[C@@H]1O [Ribostamycin sulfate salt] (20 µM) ?
Result: 0.975 (inactive)

Task: What about O=C1CC2(CCCC2)CC(=O)N1CCCCN1CCN(c2ncccn2)CC1 [Buspirone hydrochloride] (20 µM) ?
Result: 1.09 (inactive)

Task: Record: CC(=O)Oc1ccccc1C(=O)O [Acetylsalicylic acid] (20 µM)
Result: 0.992 (inactive)

Task: Subsequent entry: C[C@H](CC[C@@H](O[C@@H]1O[C@H](CO[C@@H]2O[C@H](CO)[C@@H](O)[C@H](O)[C@H]2O)[C@@H](O)[C@H](O)[C@H]1O[C@@H]1O[C@H](CO)[C@@H](O)[C@H](O)[C@H]1O)C(C)(C)O)[C@H]1CC[C@@]2(C)[C@@H]3CC=C4[C@@H](CC[C@H](O[C@@H]5O[C@H](CO[C@@H]6O[C@H](CO)[C@@H](O)[C@H](O)[C@H]6O)[C@@H](O)[C@H](O)[C@H]5O)C4(C)C)[C@]3(C)[C@H](O)C[C@]12C [Mogroside V] (50 µM)
Result: 1.03 (inactive)

Task: Now this one: Nc1ccc(S(=O)(=O)Nc2ccnn2-c2ccccc2)cc1 [Sulfaphenazole] (20 µM)
Result: 0.99 (inactive)

Task: Field entry: O=C(O)c1ccccc1Nc1cc(Cl)ccc1C(=O)O [Lobenzarit disodium] (20 µM)
Result: 1.02 (inactive)

====

# System: Klebsiella aerogenes DSM 30053
# Test Method Notes: growth (OD595) fold change vs plate DMSO controls (fold change (ratio)); higher = more growth
# Assay Setup: incubation time: 27 h, anaerobic, 37 °C
Where a name gives a salt, the structure may show the parent alone.
Quantity Measured: growth
Please reply with the value in numeric form only.

Task: Could you share which growth value was measured for O=C(O)CCC(=O)c1ccc(-c2ccccc2)cc1 [Fenbufen] (20 µM) ?
Result: 0.996

Task: Next entry: CN1CCN(CCCN2c3ccccc3Sc3ccc(C(F)(F)F)cc32)CC1 [Trifluoperazine dihydrochloride] (20 µM)
Result: 1.05

Task: Also need C[C@]12CCC(=O)C=C1CC[C@@H]1[C@@H]2C(=O)C[C@@]2(C)[C@H]1CC[C@]2(O)C(=O)CO [Cortisone] (20 µM) , thanks.
Result: 1

Task: Do the same for O=C(O)COC(=O)Cc1ccccc1Nc1c(Cl)cccc1Cl [Aceclofenac] (20 µM) please
Result: 1.14

Task: Again, but for CN(C)[C@@H]1C(=O)C(C(N)=O)=C(O)[C@@]2(O)C(=O)C3=C(O)c4c(O)ccc(Cl)c4[C@@H](O)[C@H]3C[C@@H]12 [Demeclocycline hydrochloride] (20 µM)
Result: 0.0385

Task: Now consider CN1CCCCC1CCN1c2ccccc2Sc2ccc([S+](C)[O-])cc21 (configuration not stated) [Mesoridazine besylate] (20 µM) and answer again.
Result: 0.974

Task: // repeat for OCCN(CCO)c1nc(N2CCCCC2)c2nc(N(CCO)CCO)nc(N3CCCCC3)c2n1 [Dipyridamole] (20 µM) and report
Result: 0.521

====

# Test system: Ruminococcus gnavus DSM 108212
# Test Method Notes: fold change of 2-Phenylethylamine concentration vs plate DMSO controls (fold change (ratio)); higher = more amine produced, active = hit call of the paper (significant change in both replicates, either direction)
# Assay Setup: incubation time: 27 h, anaerobic, 37 °C
Structures can show the parent of a compound that is named as a salt.
Quantity Measured: fold change of 2-Phenylethylamine concentration

Task: # get_value(readout='fold change of 2-Phenylethylamine concentration', item= CCCC(=O)Nc1ncnc2c1ncn2[C@@H]1O[C@@H]2COP(=O)(O)O[C@H]2[C@H]1OC(=O)CCC [Bucladesine sodium salt] (20 µM) )
Result: 0.975 (inactive)

Task: Param item: O=c1oc2ccccc2c(O)c1Cc1c(O)c2ccccc2oc1=O [Dicumarol] (20 µM)
Result: 1.02 (inactive)

Task: Similarly, CS(=O)(=O)c1ccc(C2=C(c3ccccc3)C(=O)OC2)cc1 [Rofecoxib] (20 µM) ?
Result: 1.07 (inactive)

Task: Please do the same for CCC(NC(C)C)C(O)c1ccc(O)c2[nH]c(=O)ccc12 (configuration not stated) [Procaterol hydrochloride] (20 µM) as well.
Result: 1.14 (inactive)

Task: Now consider CCN(CC)Cc1cc(Nc2ccnc3cc(Cl)ccc23)ccc1O [Amodiaquine dihydrochloride dihydrate] (20 µM) and answer again.
Result: 1.03 (inactive)

Task: Lookup CC(=O)O[C@]1(C(C)=O)CC[C@H]2[C@@H]3C=C(C)C4=CC(=O)CC[C@]4(C)[C@H]3CC[C@@]21C [Megestrol acetate] (20 µM)
Result: 1.04 (inactive)

Task: And Cc1cnc(C(=O)NCCc2ccc(S(=O)(=O)NC(=O)NC3CCCCC3)cc2)cn1 [Glipizide] (20 µM) ?
Result: 1.03 (inactive)
